FYI, the data here is from ChEMBL document CHEMBL1833921.

Listed next: entries and their corresponding GI50.
- System: KM12
- protocolText: Cytotoxicity against human KM12 cells after 48 hrs by sulforhodamine B assay
- Assay type: functional
- conditionContext: KM12, 48 h
observationType: GI50

• COc1cc(C(=O)c2ccc3c(c2)oc(=O)n3S(C)(=O)=O)cc(OC)c1OC = 1.15 µM
• COc1ccc(C(=O)c2cc(OC)c(OC)c(OC)c2)c(OC)c1O = < 0.01 µM
• COc1ccc(C(=O)c2cc(OC)c(O)c(OC)c2)cc1OC = 1.09 µM
• COc1cc(C(=O)c2ccc(OC)c(O)c2OC)cc(OC)c1O = 0.409 µM
